Field: EC50. Provide a value for each of the binders that follow.
subject.of.test: human CLDN18.2 (human) (UniProt P56856)
protocol.text: cell ELISA, hCLDN18.2+ cells

Data request: Record request: EC50 value, item Ab21 (antibody, V domains shown) VH: QVQLVQSGAEVKKPGSSVKVSCKASGYAFSNYLIEWVRQAPGQGLEWMGLINPGSGGTNYNEKFKGKVTITADKSTSTAYMELSSLRSEDTAVYYCARVYYGTSFAYWGQGTLVTVSS VL: DIVMTQSPDSLAVSLGERATINCKSSQSLLTSGNNKNYLAWYQQKPGQPPKLLIYWASTRESGVPDRFSGSGSGTDFTLTISSLQAEDVAVYYCQNDYFYPFTFGQGTKLEIK
Data returned: > 16 nM

Data request: Record request: EC50 value, item Ab23 (antibody, V domains shown) VH: QVQLVQSGAEVKKPGSSVKVSCKASGYAFSNYLIEWVRQAPGQGLEWMGLINPGSGGTNYNEKFKGKVTITADKSTSTAYMELSSLRSEDTAVYYCARVYYGTSFAYWGQGTLVTVSS VL: DIVMTQSPDSLAVSLGERATINCKSSQSLLNTGNNKNYLAWYQQKPGQPPKLLIYWASTRESGVPDRFSGSGSGTDFTLTISSLQAEDVAVYYCQNDYFYPFTFGQGTKLEIK
Data returned: > 40 nM

Data request: Record request: EC50 value, item Ab32 (antibody, V domains shown) VH: QVQLVQSGAEVKKPGSSVKVSCKASGYAFSNYLIEWVRQAPGQGLEWMGLINPGSGGTNYNEKFKGKVTITADKSTSTAYMELSSLRSEDTAVYYCARVYYGNTFAYWGQGTLVTVSS VL: DIVMTQSPDSLAVSLGERATINCKSSQSLLNSGNNKNYLAWYQQKPGQPPKLLIYWASTRESGVPDRFSGSGSGTDFTLTISSLQAEDVAVYYCQNDYFYPFTFGQGTKLEIK
Data returned: 0.197 nM
